SYSTEM NAME: UniProtKB P03951
EXPERIMENT SUMMARY: Factor XIa enzyme inhibition assay (chromogenic substrate S-2366)
ASSAY SETUP: read-out: Factor XIa Ki; measured at 25° C.
pKi: −log10 of the molar value. Where a name gives a salt, the structure may show the parent alone.
Item-by-item account of pKi

MOLECULE	SYSTEM NAME	RESULT
CN1CCN(c2cccc3c2CCN(C(=O)c2cn(-c4cccc(Cl)c4F)nn2)[C@@H]3C(=O)Nc2ccc(C(=O)O)cc2)C(=O)C1 [Example 80, HCl]	UniProtKB P03951	> 8.30
COC1CCN(c2cccc3c2CCN(C(=O)c2cn(-c4cccc(Cl)c4F)nn2)C3C(=O)Nc2ccccc2)CC1 (centres unmarked) [Example 118, TFA salt]	UniProtKB P03951	7.42
CN(C)C1CCN(c2cccc3c2CCN(C(=O)c2cn(-c4cccc(Cl)c4F)cn2)[C@@H]3C(=O)Nc2ccc(C(=O)O)cc2)CC1 (single isomer, unassigned) [Example 55, bis-TFA salt]	UniProtKB P03951	> 8.30
CN(C)C(=O)C1CCN(c2cccc3c2CCN(C(=O)c2cnn(-c4cccc(Cl)c4F)c2)[C@@H]3C(=O)Nc2ccc(C(=O)O)cc2)CC1 (single isomer, unassigned) [Example 61, TFA salt]	UniProtKB P03951	> 8.30

Continue with the next molecule.
Which pKi value belongs to CN1CCC2(CCN(c3cccc4c3CCN(C(=O)c3cn(-c5cccc(Cl)c5F)nn3)C4C(=O)Nc3ccc(C(=O)O)cc3)CC2)C1=O (centres unmarked) [Example 106, TFA salt] ? > 8.30

* * *

SYSTEM NAME: purified human plasma kallikrein (Homo sapiens (Human))
Sequence (P03952 391-638): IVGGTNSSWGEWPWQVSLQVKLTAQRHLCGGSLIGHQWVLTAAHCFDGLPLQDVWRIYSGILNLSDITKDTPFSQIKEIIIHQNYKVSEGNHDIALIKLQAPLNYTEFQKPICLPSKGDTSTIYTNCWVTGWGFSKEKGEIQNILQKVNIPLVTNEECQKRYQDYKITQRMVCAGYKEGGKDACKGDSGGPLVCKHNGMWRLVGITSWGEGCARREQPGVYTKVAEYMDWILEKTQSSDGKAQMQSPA
Sequence (P03952 20-390 partner): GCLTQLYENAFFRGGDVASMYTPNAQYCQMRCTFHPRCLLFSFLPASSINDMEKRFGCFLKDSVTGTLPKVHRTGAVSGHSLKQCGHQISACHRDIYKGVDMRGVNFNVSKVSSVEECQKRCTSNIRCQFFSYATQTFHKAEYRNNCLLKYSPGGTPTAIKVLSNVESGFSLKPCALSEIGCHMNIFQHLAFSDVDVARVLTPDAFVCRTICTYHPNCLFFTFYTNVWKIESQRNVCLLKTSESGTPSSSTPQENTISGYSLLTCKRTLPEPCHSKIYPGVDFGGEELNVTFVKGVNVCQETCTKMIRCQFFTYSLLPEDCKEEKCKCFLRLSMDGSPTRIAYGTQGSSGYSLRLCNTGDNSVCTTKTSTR
EXPERIMENT SUMMARY: Plasma kallikrein enzyme inhibition assay (chromogenic substrate S-2302)
Assay type: biochemical
ASSAY SETUP: measured at 37° C. (*)
pKi: −log10 of the molar value. Structures can show the parent of a compound that is named as a salt.
Returns one of Satisfied or Not satisfied; Satisfied when pKi is >= 7.

Reference set, count: 4
MOLECULE	CLASS
COC1CCN(c2cccc3c2CCN(C(=O)c2cn(-c4cccc(Cl)c4F)nn2)C3C(=O)Nc2ccccc2)CC1 (stereo not drawn) [Example 118, TFA salt]	Not satisfied
COC(=O)c1ccc(NC(=O)[C@@H]2c3cccc(-c4cncnc4)c3CCN2C(=O)[C@H]2CC(c3cccc(Cl)c3F)=NO2)cc1 [Example 28]	Satisfied
O=C(NC12CCC(C(=O)O)(CC1)CC2)[C@H]1c2cccc(-c3cncnc3)c2CCN1C(=O)c1cn(-c2cccc(Cl)c2F)nn1 (single isomer, unassigned; enantiomer b) [Example 145]	Not satisfied
Cc1ncn(-c2cccc3c2CCN(C(=O)[C@H]2CC(c4cccc(Cl)c4F)=NO2)[C@H]3C(=O)Nc2ccc(C(=O)O)cc2)n1 [Example 251, TFA salt]	Not satisfied

Could you verify whether the entry COC(=O)c1ccc(NC(=O)[C@@H]2c3cccc(N4CCN(C5COC5)CC4)c3CCN2C(=O)[C@H]2CC(c3cccc(Cl)c3F)=NO2)cc1 [Example 232, TFA salt] shows pKi of no less than 7? Satisfied

* * *

SYSTEM NAME: purified human Factor XIa (Homo sapiens (Human), UniProt P03951)
Sequence (P03951 388-625): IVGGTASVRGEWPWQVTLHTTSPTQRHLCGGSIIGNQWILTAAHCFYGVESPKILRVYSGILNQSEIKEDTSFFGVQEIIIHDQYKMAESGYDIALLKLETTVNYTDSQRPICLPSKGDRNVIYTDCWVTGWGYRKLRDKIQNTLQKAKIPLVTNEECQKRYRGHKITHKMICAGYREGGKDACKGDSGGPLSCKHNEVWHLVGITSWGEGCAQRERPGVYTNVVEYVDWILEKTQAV
Sequence (P03951 19-387 partner): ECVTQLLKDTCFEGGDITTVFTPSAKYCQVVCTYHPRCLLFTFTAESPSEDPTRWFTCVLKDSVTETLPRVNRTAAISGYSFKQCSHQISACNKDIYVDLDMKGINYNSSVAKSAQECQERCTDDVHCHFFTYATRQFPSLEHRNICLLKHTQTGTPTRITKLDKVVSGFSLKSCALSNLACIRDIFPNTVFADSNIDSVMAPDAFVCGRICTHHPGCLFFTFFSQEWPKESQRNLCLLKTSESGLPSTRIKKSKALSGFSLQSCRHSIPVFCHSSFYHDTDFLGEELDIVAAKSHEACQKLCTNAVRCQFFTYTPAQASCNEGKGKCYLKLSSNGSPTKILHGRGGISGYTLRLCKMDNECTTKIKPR
EXPERIMENT SUMMARY: Factor XIa enzyme inhibition assay (chromogenic substrate S-2366)
ASSAY SETUP: read-out: Factor XIa Ki; measured at 25° C.
Structures can show the parent of a compound that is named as a salt.
MEASURED PROPERTY: Ki (nM)
Enter your answer as a number in nM; do not include the unit.

MOLECULE	SYSTEM NAME	MEASURED PROPERTY	RESULT
O=C(O)c1ccc(NC(=O)C2c3cccc(Br)c3CCN2C(=O)c2cn(-c3cccc(Cl)c3F)nn2)cc1 (stereo not drawn) [Example 110]	purified human Factor XIa (Homo sapiens (Human), UniProt P03951)	Ki	72.7

Consider the molecule shown here: O=C(Nc1ccc2cnccc2c1)C1c2cccc(-c3cncnc3)c2CCN1C(=O)c1cn(-c2cccc(Cl)c2F)nn1 (stereo not drawn) [Example 130, TFA salt] What is its recorded Ki? 28.3

Continue with COC1CCN(c2cccc3c2CCN(C(=O)c2cnn(-c4cccc(Cl)c4)c2C(F)(F)F)C3C(=O)Nc2ccc(C(=O)O)cc2)CC1 (stereo not drawn) [Example 150, TFA salt] 2600

Lookup COC1CCN(c2cccc3c2CCN(C(=O)c2cn(-c4cccc(Cl)c4F)nn2)C3C(=O)Nc2ccc(-c3ncc[nH]3)cc2)CC1 (stereo not drawn) [Example 141, TFA] 5.95

Same question, O=C(O)c1ccc(NC(=O)[C@H]2c3cccc(-c4cncnc4)c3CCN2C(=O)c2cn(-c3cccc(Cl)c3F)nn2)cc1 [Example 13] this time 11.9
